species: Rattus norvegicus; assay: Open TG-GATES - Regimen: Daily Repeat; type: toxicity, organism-based, Sprague-Dawley; parameters: regimen Daily Repeat, gender Male, age 6 weeks; settings: in vivo, po, 0 mg/kg, […], tissue Blood, route gavage, dose level Control, time 14 day
observedProperty: PT
Answer shape: numeric part, then the unit.

Examples with answers:
[
  {
    "compound": "NC(=O)N1c2ccccc2C=Cc2ccccc21 [CARBAMAZEPINE]",
    "PT": "12.2 s"
  },
  {
    "compound": "Cn1c(=O)c2[nH]cnc2n(C)c1=O.O [THEOPHYLLINE]",
    "PT": "15.6 s"
  },
  {
    "compound": "C[C@H](CS)C(=O)N1CCC[C@H]1C(=O)O [CAPTOPRIL]",
    "PT": "11.4 s"
  },
  {
    "compound": "Clc1ccccc1CN1CCc2sccc2C1 [TICLOPIDINE]",
    "PT": "11.6 s"
  },
  {
    "compound": "CSc1ccc2c(c1)N(CCC1CCCCN1C)c1ccccc1S2 (configuration not stated) [THIORIDAZINE]",
    "PT": "11.5 s"
  }
]

What PT value was documented for this compound, CCc1cc(C(N)=S)ccn1 [ETHIONAMIDE] ?
12 s

---

species on record: Rattus norvegicus; test: Open TG-GATES - Regimen: Single; assay type: toxicity, organism-based, Sprague-Dawley; parameters: regimen Single, gender Male, age 6 weeks; conditions: in vivo, po, 300 mg/kg, 3 h, tissue Plasma, route gavage, dose level Middle
LDH reference
# output: bare number, implied unit IU/L

Examples with answers:
[
  {
    "compound": "Clc1ccccc1CN1CCc2sccc2C1 [TICLOPIDINE]",
    "observedProperty": "LDH",
    "observed": 161.4
  },
  {
    "compound": "CCc1cc(C(N)=S)ccn1 [ETHIONAMIDE]",
    "observedProperty": "LDH",
    "observed": 102.4
  },
  {
    "compound": "O=C(O)c1cc(/N=N/c2ccc(S(=O)(=O)Nc3ccccn3)cc2)ccc1O [SULFASALAZINE]",
    "observedProperty": "LDH",
    "observed": 147.2
  }
]

Then this compound:
What LDH value was documented for this compound, O=C(O)c1cn(C2CC2)c2cc(N3CCNCC3)c(F)cc2c1=O [CIPROFLOXACIN] ?
78.6

---

MCH reference
species: Rattus norvegicus; assay: Open TG-GATES - Regimen: Single; assay type: toxicity, organism-based, Sprague-Dawley; parameters: regimen Single, gender Male, age 6 weeks; details: in vivo, po, 300 mg/kg, 3 h, tissue Blood, route gavage, dose level Middle
# output: bare number, implied unit pg

[
  {
    "molecule": "Clc1ccccc1CN1CCc2sccc2C1 [TICLOPIDINE]",
    "observedProperty": "MCH",
    "uom": "pg",
    "observed": 21.8
  },
  {
    "molecule": "CCc1cc(C(N)=S)ccn1 [ETHIONAMIDE]",
    "observedProperty": "MCH",
    "uom": "pg",
    "observed": 21.7
  },
  {
    "molecule": "C[C@H](CS)C(=O)N1CCC[C@H]1C(=O)O [CAPTOPRIL]",
    "observedProperty": "MCH",
    "uom": "pg",
    "observed": 21.3
  },
  {
    "molecule": "O=C(O)c1cc(/N=N/c2ccc(S(=O)(=O)Nc3ccccn3)cc2)ccc1O [SULFASALAZINE]",
    "observedProperty": "MCH",
    "uom": "pg",
    "observed": 21.3
  }
]

Then this molecule:
What MCH value was documented for this molecule, O=C(O)c1cn(C2CC2)c2cc(N3CCNCC3)c(F)cc2c1=O [CIPROFLOXACIN] ?
22.8
